Source listed as PubChem BioAssay (EPA / NIEHS).

Read-out: CD38, CD38 (gene 952)
Assay: BSK_SAg_CD38: BioMAP Diversity Plus: SAg Assay for CD38 Biomarker Activity (AID 2283087)
Conditions: primary human HUVEC with PBMC; actives raise or lower the signal
Activity calls are given as the source filed them. The calls were made as follows: active = hit-call score of the fitted dose curve at least 0.9, where 1 is the maximum; inactive = score below 0.9.
Outcome codes: active, inactive

molecule	label
O=c1c2ccccc2c(=O)c2c1cc(Cl)c1[nH]c3c([nH]c12)c(Cl)cc1c(=O)c2ccccc2c(=O)c13	inactive
CC(C)(C)C(O)C(Oc1ccc(-c2ccccc2)cc1)n1cncn1 (configuration not stated)	inactive
O=S(=O)(c1ccccc1)c1ccccc1	inactive
CC(C)(c1cc(Cl)c(O)c(Cl)c1)c1cc(Cl)c(O)c(Cl)c1	active
Clc1ccc(-c2ccccc2)cc1	inactive
CC(C)CCCCCCCOC(=O)c1ccccc1C(=O)OCCCCCCCC(C)C	inactive
C=CC(=O)OCC(CC)CCCC (configuration not stated)	inactive
CCc1cc(C)cc(CC)c1-c1c(OC(=O)C(C)(C)C)n2n(c1=O)CCOCC2	inactive
c1ccc(Nc2ccc3ccccc3c2)cc1	inactive
CC(C)COP(=O)(OCC(C)C)OCC(C)C	inactive
COC(C)(C)CCC[C@H](C)C/C=C/C(C)=C/C(=O)OC(C)C	active
C=CCN(CC=C)C(=O)C(Cl)Cl	inactive

----------
Read-out: Tissue plasminogen activator (tPA), PLAT (gene 5327)
Assay: BSK_BE3C_tPA: BioMAP Diversity Plus: BE3C Assay for Tissue plasminogen activator (tPA) Biomarker Activity (AID 2283041)
Conditions: primary human bronchial epithelial cells; actives raise or lower the signal
Active and inactive are the calls of the source. The calls were made as follows: active = hit-call score of the fitted dose curve at least 0.9, where 1 is the maximum; inactive = score below 0.9.
resultType: AC50

compound	measValue
CC(C)(c1cc(Cl)c(O)c(Cl)c1)c1cc(Cl)c(O)c(Cl)c1	inactive
CC(C)(C)C(=O)CCl	inactive
CC(C)COP(=O)(OCC(C)C)OCC(C)C	inactive
CC(C)(C)C(O)C(Oc1ccc(-c2ccccc2)cc1)n1cncn1 (stereo unspecified)	inactive
Nc1ccc(-c2ccc(N)c(N)c2)cc1N	inactive
CCCCCCCCCCCC#N	inactive
CCCOC(=O)c1ccccc1C(=O)OCCC	inactive
CC(C)CCCCCCCOP(=O)(Oc1ccccc1)Oc1ccccc1	3.21 µM (active)
COC(C)(C)CCC[C@H](C)C/C=C/C(C)=C/C(=O)OC(C)C	9.71 µM (active)
CNC(=O)Oc1cc(C)c(SC)c(C)c1	inactive
Oc1cc(Cl)ccc1Cl	inactive
CC(C)CCCCCCCOC(=O)c1ccccc1C(=O)OCCCCCCCC(C)C	inactive
COc1ccc(CO)cc1	inactive
O=S(=O)(c1ccccc1)c1ccccc1	inactive
CCc1cc(C)cc(CC)c1-c1c(OC(=O)C(C)(C)C)n2n(c1=O)CCOCC2	5.24 µM (active)
CC1(C)[C@H](C(=O)O[C@H](C#N)c2cccc(Oc3ccccc3)c2)[C@@H]1C=C(Br)Br	inactive
CCC(C)c1cc([N+](=O)[O-])cc([N+](=O)[O-])c1OC(=O)C=C(C)C (stereo unspecified)	6.13 µM (active)
C=CCN(CC=C)C(=O)C(Cl)Cl	inactive
Cc1ccc(OP(=O)(Oc2ccc(C)cc2)Oc2ccc(C)cc2)cc1 (tested in a mixture with another compound)	inactive
O=C(CCl)c1ccccc1	inactive
c1ccc(Nc2ccc3ccccc3c2)cc1	inactive
O=[N+]([O-])c1ccc(Cl)cc1	inactive
CC(=O)/C=C/c1ccccc1	inactive
C=CC(=O)OCC(CC)CCCC (stereo unspecified)	inactive
N#CCCCCC#N	inactive
O=C1C(Cl)=C(Cl)C(=O)C(Cl)=C1Cl	inactive
